# System: HCT-116 colon
# experiment_description: NCI tumour cell line growth inhibition, 48 h
measurement_type: TGI

compound	target_or_test_system	TGI
O=[N+]([O-])c1ccc(C2=NCCO2)cc1	HCT-116 colon	> 100 µM
CC[C@@H]1/C=C/C=C/C[C@H](C)[C@@H](O)[C@@H](C)C(=O)[C@H](C)[C@@H](O)[C@H](C)C(=O)[C@H](C)[C@@H](O)[C@H](C)/C=C/C(=O)O[C@H]2[C@@H](C)[C@@H](CC1)O[C@@]1(CC[C@@H](C)[C@@H](CC(C)O)O1)[C@@H]2C (some centres undefined)	HCT-116 colon	> 25 µM
O=c1[nH]c2ccccc2n1C1CCNCC1	HCT-116 colon	> 100 µM

Next compound, TGI to be filled in.
**Query** Record lookup: for HCT-116 colon, what TGI belongs to O=C1Cc2c(-c3cccs3)cc(-c3ccccc3)nc2-c2ccccc2N1 ?
**Result** > 100 µM
